Data origin: the M2OR odorant receptor database

System: O10J1 M62I
Sequence (whole entry): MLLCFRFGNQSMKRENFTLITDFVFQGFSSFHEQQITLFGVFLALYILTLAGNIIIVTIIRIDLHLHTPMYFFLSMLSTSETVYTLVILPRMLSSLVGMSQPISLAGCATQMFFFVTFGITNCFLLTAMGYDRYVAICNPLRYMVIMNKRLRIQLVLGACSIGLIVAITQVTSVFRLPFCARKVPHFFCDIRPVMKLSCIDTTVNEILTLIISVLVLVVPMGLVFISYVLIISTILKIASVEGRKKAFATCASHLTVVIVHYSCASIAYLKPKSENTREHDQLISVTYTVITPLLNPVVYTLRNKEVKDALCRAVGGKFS
measurement-context: stereoisomer not certain

{"columns": ["compound", "target-or-test-system", "odorant receptor agonist call"],
 "data": [
  ["CCCCCCC=CCCC=O", "O10J1 M62I", "inactive"],
  ["CC1=NC(C)C(C)S1 (stereo unspecified)", "O10J1 M62I", "inactive"],
  ["CC1=C(O)C(=O)OC1C (stereo unspecified)", "O10J1 M62I", "inactive"],
  ["CC1=C(O)C(=O)C(C)O1 (stereo unspecified)", "O10J1 M62I", "inactive"],
  ["Cc1cnc(C)c(C)n1", "O10J1 M62I", "inactive"],
  ["CCC1OC(C)=C(O)C1=O (stereo unspecified)", "O10J1 M62I", "inactive"]
]}
